Taken from patent US20040014147A1.

Measured Reporter Ratio, listed per entry.
Target: human adenosine kinase (human, UniProt P55263 22-362)
Sequence (P55263 other isoform, or with tags, fused parts or gaps): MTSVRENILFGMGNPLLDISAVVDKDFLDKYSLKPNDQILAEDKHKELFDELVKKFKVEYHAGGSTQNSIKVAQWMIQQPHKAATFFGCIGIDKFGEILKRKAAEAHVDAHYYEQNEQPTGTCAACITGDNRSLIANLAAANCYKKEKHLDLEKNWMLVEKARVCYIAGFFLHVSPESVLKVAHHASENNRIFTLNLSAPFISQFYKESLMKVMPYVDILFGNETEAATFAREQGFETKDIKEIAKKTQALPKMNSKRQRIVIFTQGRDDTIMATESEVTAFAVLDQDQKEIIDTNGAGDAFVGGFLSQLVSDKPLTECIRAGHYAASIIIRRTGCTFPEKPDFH
Test: cell-based or functional assay
Where no end group is shown, it is not given here.
assay-endpoint: Reporter Ratio

[[record]]
binder = "DTMQVQCGVCRSGYVVAFWDVGP (peptide, not shown: large carriers, cysteine pairing not given here; also: expressed as GAL4/BFP-linker-peptide fusion, fusion sequences not given here) [peptide AR02E8 wt]"
experimental_result = 2.93

[[record]]
binder = "DTMQVQCGVCRSGAGVAFWDVGP (peptide, not shown: large carriers) [peptide AR02E8YV]"
experimental_result = 1.07

[[record]]
binder = "DTMQVQCGVCAGGYVVAFWDVGP (peptide, not shown: large carriers) [peptide AR02E8RS]"
experimental_result = 1.46

[[record]]
binder = "DTMQVQCGAGRSGYVVAFWDVGP (peptide, not shown: large carriers) [peptide AR02E8VC]"
experimental_result = 1.13

